src = patent US8748428B2

# Test system: K422 cells
# protocolSummary: Growth inhibition, CellTiter-Glo, 5 days
# Assay type: cell-based
# measurementSetup: 120 h; GC DLBCL, no NFkB mutation; 5 days treatment; read-out: growth inhibitory IC50, K422
metricName: pIC50
Scale for pIC50: -log10 of concentration given in mol/L; no unit attached.

C[C@@H]1CC(Nc2nccc(-c3c[nH]c4c(F)cccc34)n2)C[C@@H](C)N1 (stereo partly shown): 5.00

// query Given the compound COCCOCCOc1cccc2c(C3=C(c4c(Cl)ccc5ccc(CN(C)C)cc45)C(=O)NC3=O)c[nH]c12 , what is its reported pIC50?
// result 4.96
